Experiment: qHTS profiling of the MIPE4 collection as inhibitors of Plasmodium falciparum (3D7) proliferation (AID 743344)
Conditions: P. falciparum 3D7 in erythrocytes, SYBR Green DNA fluorescence, 72 h; at 28.5 µM unless noted
Note to self: values exactly at 90% are condition met. So parasite growth, % of DMSO control at or above 90% is condition met, below is condition not met.

{"compound": "Nc1nc(N)nc(-c2cc(Cl)ccc2Cl)n1", "answerLabel": "condition not met"}
{"compound": "CCCc1nc(C)c2c(=O)[nH]c(-c3cc(S(=O)(=O)N4CCN(CC)CC4)ccc3OCC)nn12", "answerLabel": "condition not met"}
{"compound": "Nc1nc(N)c2nc(CNc3ccc(C(=O)NC(CCC(=O)O)C(=O)O)cc3)cnc2n1 (stereo unspecified)", "answerLabel": "condition not met"}
{"compound": "COc1cc(NCc2ccc3nc(N)nc(N)c3c2C)cc(OC)c1OC", "answerLabel": "condition not met"}
{"compound": "O=C(N[C@H](CO)[C@H](O)c1ccc([N+](=O)[O-])cc1)C(Cl)Cl", "answerLabel": "condition met"}
{"compound": "CCCCCCNC(=O)n1cc(F)c(=O)[nH]c1=O", "answerLabel": "condition not met"}
{"compound": "O[C@@H](CNC[C@H](O)[C@H]1CCc2cc(F)ccc2O1)[C@@H]1CCc2cc(F)ccc2O1", "answerLabel": "condition not met"}
{"compound": "CNCC[C@H](Oc1cccc2ccccc12)c1cccs1", "answerLabel": "condition not met"}
{"compound": "NS(=O)(=O)c1cc2c(cc1Cl)NC(C(Cl)Cl)NS2(=O)=O (stereo unspecified)", "answerLabel": "condition not met"}
{"compound": "NC(=O)c1cccc(N)c1", "answerLabel": "condition met"}
{"compound": "CC[C@H](NC(C)C)[C@H](O)c1ccc(O)c2[nH]c(=O)ccc12", "answerLabel": "condition met"}
{"compound": "COc1c(N2CCNC(C)C2)c(F)cc2c(=O)c(C(=O)O)cn(C3CC3)c12 (stereo unspecified)", "answerLabel": "condition not met"}
{"compound": "NCCCC(O)(P(=O)(O)O)P(=O)(O)O", "answerLabel": "condition met"}
{"compound": "Cc1cccc(N(C)C(=S)Oc2ccc3ccccc3c2)c1", "answerLabel": "condition not met"}
{"compound": "CO[C@@H]1[C@@H](OC(N)=O)[C@@H](O)[C@H](Oc2ccc3c(O)c(NC(=O)c4ccc(O)c(CC=C(C)C)c4)c(=O)oc3c2C)OC1(C)C", "answerLabel": "condition not met"}
{"compound": "O=C(O)c1cc(=O)[nH]c(=O)[nH]1", "answerLabel": "condition met"}
{"compound": "CCc1cc(C(N)=S)ccn1", "answerLabel": "condition not met"}
{"compound": "OCc1ccc(-c2nn(Cc3ccccc3)c3ccccc23)o1", "answerLabel": "condition not met"}
{"compound": "O=c1oc2c(O)c(O)cc3c(=O)oc4c(O)c(O)cc1c4c23", "answerLabel": "condition not met"}
{"compound": "COC(c1ccccc1)(c1ccccc1)[C@H](Oc1nc(C)cc(C)n1)C(=O)O", "answerLabel": "condition met"}
{"compound": "CC(C)(Sc1cc(C(C)(C)C)c(O)c(C(C)(C)C)c1)Sc1cc(C(C)(C)C)c(O)c(C(C)(C)C)c1", "answerLabel": "condition not met"}
{"compound": "NC(=O)c1ccc2[nH]ccc2c1", "answerLabel": "condition met"}
{"compound": "NC(N)=NC(N)=NCCc1ccccc1", "answerLabel": "condition not met"}
{"compound": "CC1=CC(=O)c2ccccc2C1=O", "answerLabel": "condition not met"}
{"compound": "CN(C)CCc1c[nH]c2ccc(CS(=O)(=O)N3CCCC3)cc12", "answerLabel": "condition met"}
{"compound": "COc1nc(N)nc2c1ncn2[C@@H]1O[C@H](CO)[C@@H](O)[C@@H]1O", "answerLabel": "condition not met"}
{"compound": "CCOc1cc(N)c(Cl)cc1C(=O)NCC1CN(Cc2ccc(F)cc2)CCO1 (stereo unspecified)", "answerLabel": "condition met"}
{"compound": "COc1cc2ncnc(Nc3cccc(Cl)c3)c2cc1OC", "answerLabel": "condition not met"}
{"compound": "CCCCS(=N)(=O)CCC(N)C(=O)O (stereo unspecified)", "answerLabel": "condition met"}
{"compound": "CNNCc1ccc(C(=O)NC(C)C)cc1", "answerLabel": "condition not met"}
{"compound": "N[C@@H](C(=O)N[C@@H]1C(=O)N2C(C(=O)O)=C(Cl)CS[C@H]12)c1ccccc1", "answerLabel": "condition not met"}
{"compound": "C[C@@H](NCCCc1cccc(C(F)(F)F)c1)c1cccc2ccccc12", "answerLabel": "condition not met"}
{"compound": "CCOC(=O)[C@H](CCc1ccccc1)N[C@H]1CS[C@H](c2cccs2)CN(CC(=O)O)C1=O", "answerLabel": "condition not met"}
{"compound": "N=C(N)c1ccc(OCCCCCOc2ccc(C(=N)N)cc2)cc1", "answerLabel": "condition not met"}
{"compound": "COc1ccc(C(=O)CC(=O)c2ccc(C(C)(C)C)cc2)cc1", "answerLabel": "condition not met"}
{"compound": "CNC(=O)c1cc(Oc2ccc(NC(=O)Nc3ccc(Cl)c(C(F)(F)F)c3)cc2)ccn1", "answerLabel": "condition not met"}
{"compound": "CNS(=O)(=O)CCc1ccc2[nH]cc(C3CCN(C)CC3)c2c1", "answerLabel": "condition met"}
{"compound": "CCN[C@H]1C[C@H](C)S(=O)(=O)c2sc(S(N)(=O)=O)cc21", "answerLabel": "condition met"}
{"compound": "CCn1cc(C(=O)O)c(=O)c2cc(F)c(N3CCN(C)CC3)cc21", "answerLabel": "condition met"}
{"compound": "COc1ccccc1OCC(O)COC(N)=O (stereo unspecified)", "answerLabel": "condition met"}
{"compound": "NC(=O)c1cccnc1", "answerLabel": "condition met"}
{"compound": "C1CCC(C(CC2CCCCN2)C2CCCCC2)CC1 (stereo unspecified)", "answerLabel": "condition not met"}

---

Assay: Quantitative High-Throughput drug screen in 47 multiple myeloma cell lines against the NCATS MIPE library collection: OCIMY7_PLB cell viability assay (AID 1918987); note: nearly all actives have a fitted effect of over 65% in size
Conditions: OCI-MY7 myeloma viability, CellTiter-Glo ATP, 48 h; series mostly up to 45.8 µM
Results filed as inconclusive are left out. Activity calls are given as the source filed them. Calls come from the whole dose curve; as a rule, active = well fitted cell-killing curve with a large enough effect; inconclusive = small, poorly fitted or top-dose-only effect, or effect the other way; inactive = no such curve, though single readings can be large or run the other way.
Labels: active, inactive

{"molecule": "COc1cc(NS(=O)(=O)c2ccc(N)cc2)nc(OC)n1", "answerLabel": "inactive"}
{"molecule": "CN(C)CCc1c[nH]c2ccc(C[C@H]3COC(=O)N3)cc12", "answerLabel": "inactive"}
{"molecule": "O=S(=O)(O)CCS", "answerLabel": "inactive"}
{"molecule": "CC(C)OC(=O)C(C(=O)OC(C)C)=C1SC=CS1", "answerLabel": "inactive"}
{"molecule": "CC1=CC(=O)c2ccccc2C1=O", "answerLabel": "active"}
{"molecule": "CC(C)(C)NC(=O)[C@H]1CC[C@H]2[C@@H]3CC[C@H]4NC(=O)C=C[C@]4(C)[C@H]3CC[C@]12C", "answerLabel": "active"}
{"molecule": "COC(=O)Nc1nc2ccc(Sc3ccccc3)cc2[nH]1", "answerLabel": "active"}
{"molecule": "CC[C@H](C)C(=O)O[C@H]1C[C@@H](C)C=C2C=C[C@H](C)[C@H](CC[C@@H]3C[C@@H](O)CC(=O)O3)[C@H]21", "answerLabel": "active"}
{"molecule": "CO[C@@H]1[C@@H](OC(N)=O)[C@@H](O)[C@H](Oc2ccc3c(O)c(NC(=O)c4ccc(O)c(CC=C(C)C)c4)c(=O)oc3c2C)OC1(C)C", "answerLabel": "active"}
{"molecule": "CNCC[C@H](Oc1cccc2ccccc12)c1cccs1", "answerLabel": "active"}
{"molecule": "CCCc1nc(C)c2c(=O)[nH]c(-c3cc(S(=O)(=O)N4CCN(CC)CC4)ccc3OCC)nn12", "answerLabel": "active"}
{"molecule": "CNC1CCCN(c2c(F)cc3c(=O)c(C(=O)O)cn(C4CC4)c3c2OC)C1 (stereo unspecified)", "answerLabel": "active"}
{"molecule": "CCCCOc1ccc(CC(=O)NO)cc1", "answerLabel": "active"}
{"molecule": "C[C@@H]1C[C@H]2[C@@H]3CCC4=CC(=O)C=C[C@]4(C)[C@@]3(Cl)[C@@H](O)C[C@]2(C)[C@@]1(OC(=O)c1ccco1)C(=O)CCl", "answerLabel": "active"}
{"molecule": "Cc1ccc(S(=O)(=O)N[C@@H](Cc2ccccc2)C(=O)CCl)cc1", "answerLabel": "active"}
{"molecule": "Nc1[nH]c(=O)ncc1F", "answerLabel": "inactive"}
{"molecule": "Cc1cc(NS(=O)(=O)c2ccc(N)cc2)no1", "answerLabel": "active"}
{"molecule": "CNS(=O)(=O)CCc1ccc2[nH]cc(C3CCN(C)CC3)c2c1", "answerLabel": "active"}
{"molecule": "COc1cc([C@@H]2c3cc4c(cc3[C@H](O)[C@H]3COC(=O)[C@H]23)OCO4)cc(OC)c1OC", "answerLabel": "inactive"}
{"molecule": "C1CCC(C(CC2CCCCN2)C2CCCCC2)CC1 (stereo unspecified)", "answerLabel": "active"}
{"molecule": "CCCCc1oc2ccc(NS(C)(=O)=O)cc2c1C(=O)c1ccc(OCCCN(CCCC)CCCC)cc1", "answerLabel": "active"}
